Data provenance is patent US20230192896A1.

# Lookup of reported log10 of Kd keyed by entry
# Experimental System: free FIXa (activated Factor IX) (UniProt P00740 47-191; P00740 227-461)
# Assay Protocol: BLI
Recorded Metric: log10 of Kd (log10 of the value in nM)

1) BIIB-9-886 (antibody, V domains shown) VH: QVQLVQSGAEVKKPGASVKVSCKASGYTFTSYYMHWVRQAPGQGLEWMGIINPSGGSTSYAQKFQGRVTMTRDTSTSTVYMELSSLRSEDTAVYYCARDPAHSYLDAFDIWGQGTMVTVSS VL: DIQMTQSPSSVSASVGDRVTITCRASQGISSWLAWYQQKPGKAPKLLIYAASSLQSGVPSRFSGSGSGTDFTLTISSLQPEDFATYYCQQASSFPFTFGGGTKVEIK :: 1.49
2) BIIB-9-628 (antibody, V domains shown) VH: QVQLVQSGAEVKKPGASVKVSCKASGYTFTSYYMHWVRQAPGQGLEWMGIINPSGGSTSYAQKFQGRVTMTRDTSTSTVYMELSSLRSEDTAVYYCAREPIAYGATLDLWGRGTLVTVSS VL: EIVLTQSPGTLSLSPGERATLSCRASQSVSSDYLAWYQQKPGQAPRLLIYGASSRATGIPDRFSGSGSGTDFTLTISRLEPEDFAVYYCQQYVVFPFTFGGGTKVEIK :: 2.03
3) BIIB-9-439 (antibody, V domains shown) VH: QVQLVQSGAEVKKPGASVKVSCKASGYTFTSYYMHWVRQAPGQGLEWMGIINPSGGSTTYAQKFQGRVTMTRDTSTSTVYMELSSLRSEDTAVYYCAREATESYYYMDVWGKGTTVTVSS VL: EIVMTQSPATLSLSPGERATLSCRASQSVSSYLAWYQQKPGQAPRLLIYDSSNRATGIPARFSGSGSGTDFTLTISSLEPEDFAVYYCQQRDNWPFTFGGGTKVEIK :: 1.19
4) BIIB-9-1276 (antibody, V domains shown) VH: QLQLQESGPGLVKPSETLSLTCTVSGGSISSSSYYWGWIRQPPGKGLEWIGSIYYSGSTYYNPSLKSRVTISVDTSKNQFSLKLSSVTAADTAVYYCARDVGRTYELFDIWGQGTMVTVSS VL: DIQMTQSPSSVSASVGDRVTITCRASQGISSWLAWYQQKPGKAPKLLIYAASSLQSGVPSRFSGSGSGTDFTLTISSLQPEDFATYYCQQGNSFPITFGGGTKVEIK :: 1.51
5) BIIB-9-1273 (antibody, V domains shown) VH: QVQLVQSGAEVKKPGASVKVSCKASGYTFTSYYMHWVRQAPGQGLEWMGIINPSGGSTSYAQKFQGRVTMTRDTSTSTVYMELSSLRSEDTAVYYCARDTGGYAFDIWGQGTLVTVSS VL: EIVLTQYPATLSLSPGERATLSCRASQSVSSYLAWYQQKPGQAPRLLIYDASNRATGIPARFSGSGSGTDFTLTISSLEPEDFAVYYCQQSANFPFTFGGGTKVEIK :: 1.32
6) BIIB-9-611 (antibody, V domains shown) VH: QVQLVQSGAEVKKPGASVKVSCKASGYTFTSYYMHWVRQAPGQGLEWMGIINPSGGSTSYAQKFQGRVTMTRDTSTSTVYMELSSLRSEDTAVYYCAREVISRVSYFDLWGRGTLVTVSS VL: EIVMTQSPATLSVSPGERATLSCRASQSVSSNLAWYQQKPGQAPRLLIYGASTRATGIPARFSGSGSGTEFTLTISSLQSEDFAVYYCQQDNIHPYTFGGGTKVEIK :: 1.27
7) BIIB-9-419 (antibody, V domains shown) VH: QVQLVQSGAEVKKPGASVKVSCKASGYTFTSYYMHWVRQAPGQGLEWMGIINPSGGSTSYAQKFQGRVTMTRDTSTSTVYMELSSLRSEDTAVYYCAREPTFYASYFDLWGRGTLVTVS VL: EIVMTQSPATLSLSPGERATLSCRASQSVSSYLAWYQQKPGQAPRLLIYDSSNRATGIPARFSGSGSGTDFTLTISSLEPEDFAVYYCQQVSTHPYTFGGGTKVEIK :: 1.32
8) BIIB-9-425 (antibody, V domains shown) VH: QVQLVQSGAEVKKPGASVKVSCKASGYTFTSYYMHWVRQAPGQGLEWMGIINPSGGSTSYAQKFQGRVTMTRDTSTSTVYMELSSLRSEDTAVYYCAREPTWDVAYDYWGQGTLVTVS VL: EIVLTQSPGTLSLSPGERATLSCRASQSVSSDYLAWYQQKPGQAPRLLIYGASSRATGIPDRFSGSGSGTDFTLTISRLEPEDFAVYYCQQYDSHPYTFGGGTKVEIK :: 0.74
9) BIIB-9-631 (antibody, V domains shown) VH: QVQLVQSGAEVKKPGASVKVSCKASGYTFTSYYMHWVRQAPGQGLEWMGIINPSGGSTSYAQKFQGRVTMTRDTSTSTVYMELSSLRSEDTAVYYCARAENRGDYEAWGQGTLVTVSS VL: DIQMTQSPSSVSASVGDRVTITCRASQGISRWLAWYQQKPGKAPKLLIYAASSLQSGVPSRFSGSGSGTDFTLTISSLQPEDFATYYCQQRTSFPLTFGGGTKVEIK :: 1.79
